tested on: SUDV (glycoprotein, VSV pseudotype); test: microbe, parasite or virus in culture; assay type: cell-based, Sudan ebolavirus; details: Vesicular stomatitis virus, Vero, 24 h, read-out: EC50 Pseudotype Assays SUDV

| COMPOUND | VALUE COMPARATOR | EC50 (nM) |
| --- | --- | --- |
| C[C@@H]1C[C@H](NC(=O)C23CC4C[C@@](C)(C2)C[C@](c2ccccc2)(C4)C3)CCN1 [Example B14] | = | 730 |
| CC12CC3CC(C(=O)NC4CC5CC4CN5)(C1)CC(c1ccccc1)(C3)C2 (racemic) [Example A31] | > | 1000 |
| C[C@]12CC3CC(C(=O)N4CC5(CC(N)C5)C4)(C1)C[C@@](c1ccccc1)(C3)C2 [Example B11] | = | 260 |
| CCC12CC3CC(C(=O)N[C@@H]4CCNC[C@H]4O)(C1)CC(c1ccccc1)(C3)C2 (mixture of isomers) [Example A25] | = | 795 |
| C[C@@]12CC3CC(C(=O)N[C@H]4CC[C@H](CN)CC4)(C1)C[C@](c1ccccc1)(C3)C2 [Example C3] | = | 855 |
| CCC12CC3CC(C(=O)N[C@H]4CCNC[C@@H]4F)(C1)CC(c1ccccc1)(C3)C2 (mixture of isomers) [Example A19] | = | 465 |
| CC12CC3CC(C(=O)N4CCCNCC4)(C1)CC(c1ccccc1)(C3)C2 (racemic) [Example A34] | = | 180 |
